Cited source for all entries: patent US20120277143A1

biological target: human IL13 (human, UniProt P35225 35-146, biotinylated in the SPR assays (sites not given)); experiment: cell-based or functional assay
Sequence (P35225 other isoform, or with tags, fused parts or gaps limits assumed): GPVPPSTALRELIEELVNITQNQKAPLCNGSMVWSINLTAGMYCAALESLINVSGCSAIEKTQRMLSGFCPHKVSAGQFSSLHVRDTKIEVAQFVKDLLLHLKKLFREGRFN
Provide the recorded HEK Stat6 human IL13 IC50 for the entries that follow.
Answers are plain numbers, in nM.

Some solved cases for reference:
Binder	HEK Stat6 human IL13 IC50, nM
C06_53G6_V1_C01_6G9_V1 (designed binder, bispecific IL4/IL13 ankyrin repeat protein with (GGGGS)4 linker; also called bispecific AR protein) DLGKKLLEAARAGQDDEVRILMANGADVNATDDWGDTLLHLAATDGHLEIVEVLLKAGADVNANDAIGDTPLHLAALYGHLEIVEVLLKYGADVNATDLHGFTPLHLAAFWGHLEIVEVLLKHGADVNAQDKFGKTAFDISIDNGNEDLAEILQKLNGGGGSGGGGSGGGGSGGGGSDLDKKLLEAARAGQDDEVRILMANGADVNARDSYGSTPLHLAAREGHLEIVEVLLKYGADVNAADFIGDTPLHLAAYRGHLEIVEVLLKYGADVNASDITGETPLHLAAQIGHLEIVEVLLKHGADVNAQDKFGKTAFDISIDNGNEDLAEILQKLN	0.027
C01_6G9_V1_C06_28E5_V1 (designed binder, bispecific IL13/IL4 ankyrin repeat protein with (GGGGS)4 linker; also called bispecific AR protein) DLDKKLLEAARAGQDDEVRILMANGADVNARDSYGSTPLHLAAREGHLEIVEVLLKYGADVNAADFIGDTPLHLAAYRGHLEIVEVLLKYGADVNASDITGETPLHLAAQIGHLEIVEVLLKHGADVNAQDKFGKTAFDISIDNGNEDLAEILQKLGGGGSGGGGSGGGGSGGGGSRSDLGKKLLEAARAGQDDEVRILMANGADVNAADDSGITPLHLAAEDGHLEIVEVLLKAGADVNAQDNLGDTPLHLAAWTGHLEIVEVLLKAGADVNAYDISGITPLHLAAFYGHLEIVEVLLKHGADVNAQDKFGKTAFDISIDNGNEDLAEILQKLN	0.019
C06_44C12_V2_C01_6G9_V1 (designed binder, bispecific IL4/IL13 ankyrin repeat protein with (GGGGS)4 linker; also called bispecific AR protein) DLGKKLLEAASAGQDDEVHILMANGADVNALDDSGYTPLHLAAEDGHLEIVEVLLKHGADVNAADRLGDTPLHLAAFVGHLEIVEVLLKAGADVNAVDLAGVTPLHVAAFYGHLEIVEVLLKAGADVNAQDKFGKTAFDISIDNGNEDLAEILQKLNGGGGSGGGGSGGGGSGGGGSDLDKKLLEAARAGQDDEVRILMANGADVNARDSYGSTPLHLAAREGHLEIVEVLLKYGADVNAADFIGDTPLHLAAYRGHLEIVEVLLKYGADVNASDITGETPLHLAAQIGHLEIVEVLLKHGADVNAQDKFGKTAFDISIDNGNEDLAEILQKLN	0.014
C01_6G9_V1_C06_44C12_V2 (designed binder, bispecific IL13/IL4 ankyrin repeat protein with (GGGGS)4 linker; also called bispecific AR protein) DLDKKLLEAARAGQDDEVRILMANGADVNARDSYGSTPLHLAAREGHLEIVEVLLKYGADVNAADFIGDTPLHLAAYRGHLEIVEVLLKYGADVNASDITGETPLHLAAQIGHLEIVEVLLKHGADVNAQDKFGKTAFDISIDNGNEDLAEILQKLNGGGGSGGGGSGGGGSGGGGSDLGKKLLEAASAGQDDEVHILMANGADVNALDDSGYTPLHLAAEDGHLEIVEVLLKHGADVNAADRLGDTPLHLAAFVGHLEIVEVLLKAGADVNAVDLAGVTPLHVAAFYGHLEIVEVLLKAGADVNAQDKFGKTAFDISIDNGNEDLAEILQKLN	0.015

Note: attention shifts to another entry.
**Q:** # query: HEK Stat6 human IL13 IC50 of entry C01_6G9_V1_C06_53G6_V1 (designed binder, bispecific IL13/IL4 ankyrin repeat protein with (GGGGS)4 linker; also called bispecific AR protein) DLDKKLLEAARAGQDDEVRILMANGADVNARDSYGSTPLHLAAREGHLEIVEVLLKYGADVNAADFIGDTPLHLAAYRGHLEIVEVLLKYGADVNASDITGETPLHLAAQIGHLEIVEVLLKHGADVNAQDKFGKTAFDISIDNGNEDLAEILQKLNGGGGSGGGGSGGGGSGGGGSDLGKKLLEAARAGQDDEVRILMANGADVNATDDWGDTLLHLAATDGHLEIVEVLLKAGADVNANDAIGDTPLHLAALYGHLEIVEVLLKYGADVNATDLHGFTPLHLAAFWGHLEIVEVLLKHGADVNAQDKFGKTAFDISIDNGNEDLAEILQKLN
**A:** 0.015
